Each recorded value in this set is attributed to ChEMBL document CHEMBL5360666.

target: Carbonic anhydrase 12 (Homo sapiens)
Sequence (O43570 whole entry): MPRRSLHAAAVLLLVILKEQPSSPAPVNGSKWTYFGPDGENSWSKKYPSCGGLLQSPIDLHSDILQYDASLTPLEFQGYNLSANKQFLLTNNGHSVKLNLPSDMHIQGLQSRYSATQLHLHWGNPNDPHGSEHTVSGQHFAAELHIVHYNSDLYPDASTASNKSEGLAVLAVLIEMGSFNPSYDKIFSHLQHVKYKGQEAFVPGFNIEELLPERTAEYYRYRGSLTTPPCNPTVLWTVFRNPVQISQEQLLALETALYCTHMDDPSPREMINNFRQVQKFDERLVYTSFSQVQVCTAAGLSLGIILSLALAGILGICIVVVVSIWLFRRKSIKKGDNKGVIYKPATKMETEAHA
Assay Readout: Ki

Value of measured Ki for the entry `COc1ccc(CNc2ccc(S(N)(=O)=O)cc2)cc1` : 11.2 nM

* * *

biological target: UniProt Q16790
In this section, each of the molecules is paired with its reported pKi.
# pKi: negative log10 of molar concentration; output just the value

// solved cases for pKi follow
| Molecule | pKi |
| --- | --- |
| CCOP(=O)(OCC)C(Nc1ccc(S(N)(=O)=O)cc1)c1ccc(-c2ccccc2)cc1 (stereo not given) | 6.65 |
| CCOP(=O)(OCC)C(Nc1ccc(S(N)(=O)=O)cc1)c1ccc(OC)c(OC)c1 (stereo not given) | 6.93 |
| CCOP(=O)(OCC)C(Nc1ccc(S(N)(=O)=O)cc1)c1ccc(Cl)cc1 (stereo not given) | 6.85 |
| CCOP(=O)(OCC)C(Nc1ccc(S(N)(=O)=O)cc1)c1cccc(F)c1 (stereo not given) | 7.41 |

Query molecule follows.
Value of measured pKi for the entry CCOP(=O)(OCC)C(Nc1ccc(S(N)(=O)=O)cc1)c1cc(OC)c(OC)cc1OC (stereo not given) : 6.60
